Each entry below lists one item and its recorded z-score value.
assay.summary: adipocyte viability effects, profiling panel, cell-based, 3T3-L1 adipocytes, calcein-AM fluorescence, 48 h, basal (AID 1163); further: test concentration not given here
condition.details: 3T3-L1 adipocytes viability, higher = more signal

- compound: "O=C1N(Cc2ccccc2)Cc2ccccc2[C@@H]2OC(c3ccc(OCCCO)cc3)=N[C@]12CCS(=O)(=O)c1ccccc1"
  z-score: -1.46
- compound: "CC(C)C[C@@H]1NC(=O)[C@@H]2C[C@H](C(=O)NCCCCN(C)C)[C@H](c3cccc(OCCO)c3)N2C1=O"
  z-score: 0.507
- compound: "CCCC[C@@H](O)C1=C(COc2ccccc2)C[C@H]2C(=O)N(C)C(=O)[C@H]2[C@H]1CO"
  z-score: 0.0659
- compound: "O=C1C2C=CC(C(O)c3ccc(Br)cc3)N(Nc3ccccc3F)C2C(=O)N1c1ccccc1 (configuration not stated)"
  z-score: 0.085
- compound: "COCCOC(=O)N1C(=O)[C@@]2(c3cc(C#CC4=CCCCC4)ccc31)[C@H](c1ccc(OCCO)cc1)N1[C@H](c3ccccc3)[C@H](c3ccccc3)OC(=O)[C@H]1[C@@H]2C(=O)N1CCN(c2ncccn2)CC1"
  z-score: 1.18
- compound: "O=C1NC(=O)C2C1C=CC(C(O)c1cccc3ccccc13)N2Nc1ccc(Cl)cc1Cl (configuration not stated)"
  z-score: -0.132
- compound: "NC(=O)NCC#Cc1ccc2c(c1)[C@]1(C(=O)N2)[C@H](C(=O)NC[C@H](O)c2ccccc2)[C@H]2C(=O)O[C@H](c3ccccc3)[C@H](c3ccccc3)N2[C@@H]1c1ccc(OCCO)cc1"
  z-score: 0.468

* * *

Parameter: z-score. Scope: all listed entries.
study.target: NADPH oxidase 4 (Homo sapiens)
assay.summary: NOX4-dependent H2O2 signal modulators, primary screen, NOX inhibitor project, cell-based, HEK293-NOX4, tetracycline-induced, Amplex Red fluorescence (AID 1160)
condition.details: 45 min, higher = more signal, called active from +8 up or from −8 down
measured.property: z-score

- compound: "COC(=O)[C@@]1(Cc2ccccc2N=[N+]=[N-])N=C(c2ccc(OCCCO)cc2)O[C@H]1c1ccccc1N=[N+]=[N-]"
  study.target: "NADPH oxidase 4 (Homo sapiens)"
  measured.property: "z-score"
  endpoint.value: 0.802
- compound: "CC(=O)NCCCC[C@@H]1NC(=O)[C@H]2C[C@@H](C(=O)NCCCC[N+](C)(C)C)[C@@H](c3cccc(OCCO)c3)N2C1=O"
  study.target: "NADPH oxidase 4 (Homo sapiens)"
  measured.property: "z-score"
  endpoint.value: -0.477
- compound: "CCCCCCc1nc(-c2cc(C)c(OC)c(C)c2)c(C)c2c1[Si](C(C)C)(C(C)C)OC2"
  study.target: "NADPH oxidase 4 (Homo sapiens)"
  measured.property: "z-score"
  endpoint.value: 0.626
- compound: "C=C(C)C1CCC(C(O)C2C=CC3C(=O)N(C)C(=O)C3N2N2CCCCC2)CC1 (stereo not drawn)"
  study.target: "NADPH oxidase 4 (Homo sapiens)"
  measured.property: "z-score"
  endpoint.value: 0.773
- compound: "COc1ccc([Si](C)(C)[C@@H]2[C@@H](CCn3cc([C@H](O)c4ccccc4)nn3)O[C@]3(C(=O)N(Cc4ccc(N5CCC5=O)cc4)c4ccccc43)[C@H]2C)cc1"
  study.target: "NADPH oxidase 4 (Homo sapiens)"
  measured.property: "z-score"
  endpoint.value: 1.08
- compound: "C=CCNC(=O)[C@H]1[C@@H]2C(=O)O[C@@H](c3ccccc3)[C@@H](c3ccccc3)N2[C@@H](c2ccc(O)cc2)[C@]12C(=O)Nc1ccc(C#CC3(O)CCCCCC3)cc12"
  study.target: "NADPH oxidase 4 (Homo sapiens)"
  measured.property: "z-score"
  endpoint.value: 0.772
- compound: "C=CCC(OC(C)=O)[C@@H]1[C@@H](N(Cc2ccc(-c3cccc(C(F)(F)F)c3)o2)C(=O)c2ccc(C)cc2)c2cc(OCCCO)ccc2N1C(=O)c1ccc2ccccc2c1 (stereo partly drawn)"
  study.target: "NADPH oxidase 4 (Homo sapiens)"
  measured.property: "z-score"
  endpoint.value: 0.713
- compound: "COC(=O)[C@H](Cc1ccccc1)N1CC(/C=C/C2CC2)=C[C@H]1[C@H](O)Cc1ccccc1"
  study.target: "NADPH oxidase 4 (Homo sapiens)"
  measured.property: "z-score"
  endpoint.value: -0.819
- compound: "COC(=O)[C@@]1(Cc2ccccc2)[C@@H]2C(=CC(=O)[C@H]2CC(=O)C(=O)N(C)C)CN1C(=O)c1ccccc1"
  study.target: "NADPH oxidase 4 (Homo sapiens)"
  measured.property: "z-score"
  endpoint.value: 0.705
- compound: "O=C(NCC(F)(F)F)[C@@H]1c2ccccc2C(=O)N(Cc2ccc(OC(F)(F)F)cc2)[C@H]1c1ccc(CO)cc1"
  study.target: "NADPH oxidase 4 (Homo sapiens)"
  measured.property: "z-score"
  endpoint.value: -0.889
- compound: "O=C1OCC=C[C@H]2OC34C=CCN(Cc5ccccc5)C(=O)[C@H]3N(CCCCCCO)C(=O)[C@@H]4[C@@H]12 (stereo partly drawn)"
  study.target: "NADPH oxidase 4 (Homo sapiens)"
  measured.property: "z-score"
  endpoint.value: -0.272
- compound: "COc1ccc(-c2cc3c(c(CCc4ccccc4)n2)[Si](C(C)C)(C(C)C)OC3)cn1"
  study.target: "NADPH oxidase 4 (Homo sapiens)"
  measured.property: "z-score"
  endpoint.value: -0.0624
- compound: "COC(=O)[C@@]1(Cc2ccccc2)[C@H]2c3cc(C(=O)N(C)C)n(CCN4CNCC4=O)c3C[C@H]2CN1C(=O)c1ccccc1"
  study.target: "NADPH oxidase 4 (Homo sapiens)"
  measured.property: "z-score"
  endpoint.value: 0.554
- compound: "COc1ccc([Si](C)(C)[C@@H]2[C@@H](CC(=O)N3Cc4ccccc4C[C@H]3CO)O[C@]3(C(=O)N(C)c4ccccc43)[C@H]2C)cc1"
  study.target: "NADPH oxidase 4 (Homo sapiens)"
  measured.property: "z-score"
  endpoint.value: 0.00429
- compound: "O=C1O[C@H](c2ccccc2)[C@H](c2ccccc2)N2[C@H]1[C@@H](C(=O)O)[C@]1(C(=O)Nc3ccc(C#CC4=CCCCC4)cc31)[C@H]2c1ccc(O)cc1"
  study.target: "NADPH oxidase 4 (Homo sapiens)"
  measured.property: "z-score"
  endpoint.value: -3.15
- compound: "CCOC(=O)C1CCCCN1 (stereo not drawn)"
  study.target: "NADPH oxidase 4 (Homo sapiens)"
  measured.property: "z-score"
  endpoint.value: 0.0488
- compound: "CC(CO)N1C(=O)[C@@H]2[C@H]3C(=O)OCC=C[C@H]3OC23C=CCN(C(C)(C)C)C(=O)[C@@H]13 (stereo partly drawn)"
  study.target: "NADPH oxidase 4 (Homo sapiens)"
  measured.property: "z-score"
  endpoint.value: 0.401
- compound: "Cc1ccc(S[C@]2(C(=O)NCC(F)(F)F)CC(=O)N(Cc3ccccc3)[C@@H]2c2ccc(CO)cc2I)cc1"
  study.target: "NADPH oxidase 4 (Homo sapiens)"
  measured.property: "z-score"
  endpoint.value: -1.33
- compound: "[N-]=[N+]=Nc1ccccc1C[C@]1(C(N)=O)N=C(c2ccc(OCCCO)cc2)O[C@H]1c1ccccc1N=[N+]=[N-]"
  study.target: "NADPH oxidase 4 (Homo sapiens)"
  measured.property: "z-score"
  endpoint.value: -2.16
- compound: "CC(C)[Si](C#CCCCC#N)(O[C@H](c1ccccc1)c1cn([C@H](CO)Cc2ccccc2)nn1)C(C)C"
  study.target: "NADPH oxidase 4 (Homo sapiens)"
  measured.property: "z-score"
  endpoint.value: 0.789
- compound: "CCOC(=O)c1ccc(NC(=O)O[C@H]2[C@H](OC(=O)Nc3ccc4c(c3)OCO4)[C@@H](OC(=O)Nc3ccc4c(c3)OCO4)[C@@H](OC)O[C@@H]2CO)cc1"
  study.target: "NADPH oxidase 4 (Homo sapiens)"
  measured.property: "z-score"
  endpoint.value: -0.689
- compound: "COC(=O)[C@@]1(Cc2ccc(OC)cc2)[C@H]2c3cc(C(=O)N4CCCC4)n(Cc4cccc5ccccc45)c3C[C@H]2CN1C(=O)c1ccccc1"
  study.target: "NADPH oxidase 4 (Homo sapiens)"
  measured.property: "z-score"
  endpoint.value: 1.74
- compound: "C=CCC(OC(C)=O)[C@@H]1[C@@H](N(Cc2cccc3ccccc23)C(=O)Cc2ccc(F)cc2)c2cc(OCCCO)ccc2N1C(=O)c1ccc2ccccc2n1 (stereo partly drawn)"
  study.target: "NADPH oxidase 4 (Homo sapiens)"
  measured.property: "z-score"
  endpoint.value: 0.619
- compound: "CC(C)(C)OC(=O)CC[C@@]1(C(=O)NCc2ccccc2)N=C(c2ccc(OCCCO)cc2)O[C@@H]1c1ccccc1N=[N+]=[N-]"
  study.target: "NADPH oxidase 4 (Homo sapiens)"
  measured.property: "z-score"
  endpoint.value: 0.457
- compound: "COc1cc(CO)cc(I)c1O[C@H]1C=C(C(=O)NCCO)C[C@@H](NCc2ccc(F)cc2)[C@@H]1O"
  study.target: "NADPH oxidase 4 (Homo sapiens)"
  measured.property: "z-score"
  endpoint.value: -1.05
- compound: "COc1ccc([Si](C)(C)[C@@H]2[C@@H](CC(=O)N(CCO)Cc3ccccc3)O[C@]3(C(=O)N(Cc4cccc(N5CCOC5=O)c4)c4ccccc43)[C@H]2C)cc1"
  study.target: "NADPH oxidase 4 (Homo sapiens)"
  measured.property: "z-score"
  endpoint.value: 1.35
- compound: "COc1ccccc1CN1C(=O)c2ccccc2[C@](Cc2ccccc2I)(C(=O)NCC(F)(F)F)[C@@H]1c1ccc(CO)cc1"
  study.target: "NADPH oxidase 4 (Homo sapiens)"
  measured.property: "z-score"
  endpoint.value: -1.73
- compound: "[N-]=[N+]=Nc1ccccc1[C@H]1OC(c2ccc(OCCCO)cc2)=N[C@@]1(Cc1ccccc1)C(=O)N1CCCCC1"
  study.target: "NADPH oxidase 4 (Homo sapiens)"
  measured.property: "z-score"
  endpoint.value: 0.804
